# Tested on: Wild type
# testName: S. aureus survival, RN4220 and DeltatarO strains – OD600, teichoic acid synthesis inhibitors, primary screen (AID 463173)
# experimentalParameters: S. aureus RN4220 wild type/DeltatarO growth, OD600, 18 h, screened at 18.75 µg/mL (by protocol)
About 1,700 (3.3%) of roughly 52,000 compounds were called active. Cut-off read from the data, not from the text of the source: active = survival mostly below about 52% (no sharp cut-off); inactive = mostly above about 56%. This excerpt belongs to a sample that is enriched for actives.
Possible outcomes: label 1 = active, label 0 = inactive

molecule	discreteLabel
O=C(NC1CCCC1)c1c[nH]c2ccc(S(=O)(=O)Nc3cccc(C(F)(F)F)c3)cc2c1=O	label 1
CCCCOc1ccccc1CC1C(=O)Nc2ccc(Br)cc21 (configuration not stated)	label 1
Cc1cccc(-c2nc(Cn3c(SCc4cccc(C(F)(F)F)c4)nc4ccncc43)c(C)o2)c1	label 0
CCc1ccc(NC(=O)CC2C(=O)OCCN2CC)cc1 (configuration not stated)	label 1
COC(=O)c1ccc(NC(=O)CC2C(=O)N(c3ccccc3)C(=O)N2Cc2ccc(F)cc2)cc1 (configuration not stated)	label 1
CCc1ccc(C(=O)c2cn(Cc3ccccc3)c3cc(OC)c(OC)cc3c2=O)cc1	label 0
COc1ccc(CC2C(=O)Nc3ccc(Br)cc32)cc1OC (configuration not stated)	label 0
CCS(=O)(=O)N1CC(=O)N(c2cc(C)ccc2C)C(C)(C(=O)NC2CCCCC2)C1 (configuration not stated)	label 0
CCc1c(CN2CCN(c3cccc(C)c3)C(C)C2)csc1C (configuration not stated)	label 0
COc1ccccc1Cn1cc(C(=O)c2ccccc2)c(=O)c2cc(OC)c(OC)cc21	label 1
COc1ccc(OC)c(CC2C(=O)Nc3ccc(Br)cc32)c1 (configuration not stated)	label 0
CCOC(=O)c1ccc(NC(=O)CC2C(=O)N(c3ccc(F)cc3)C(=O)N2Cc2ccc(C)cc2)cc1 (configuration not stated)	label 0
COC(=O)c1ccc(NC(=O)CC2C(=O)N(c3cccc(OC)c3)C(=O)N2C(C)C)cc1 (configuration not stated)	label 0
COc1ccccc1Cn1cc(C(=O)c2ccc(C)cc2)c(=O)c2cc(C)ccc21	label 0
CCCOc1ccc(NC(=O)CC2C(=O)N(c3ccccc3)C(=O)N2Cc2ccc(F)cc2)cc1 (configuration not stated)	label 1
CC(=O)Nc1cc(C(=O)NCc2ccc(C)cc2)ccc1S(=O)(=O)c1ccc(Cl)cc1	label 0
COc1ccc(CN2C(=O)N(c3ccc(F)cc3)C(=O)C2CC(=O)Nc2ccccc2)cc1 (configuration not stated)	label 0
